Values compiled from patent US11459323B2.

Test system: Acinetobacter baumannii C281
Assay Info: MIC on clinically isolated bacteria
Type: cell-based
Applied Conditions: Acinetobacter baumannii C281; read-out: Minimum Inhibitory Concentration (MIC)
Catalogue of MIC readings, one per entry.
Form entry: value (µg/mL) — number only.

For orientation, consider the following solved cases.
>>> df
                                   compound  result_type  data_value
0  CC1(C)[C@H](NC(=O)/C(=N\O[C@@H](COc2ccc3c(c2)CN(C(=N)NOCCN)C3)C(=O)O)c2csc(N)n2)C(=O)N1OS(=O)(=O)O [Compound 43]          MIC           8
1  CC1(C)[C@H](NC(=O)/C(=N\O[C@@H](COc2ccc3c(c2)CN(C(=N)NCCCCN)C3)C(=O)O)c2csc(N)n2)C(=O)N1OS(=O)(=O)O [Compound 36]          MIC           2

Moving on to another compound below.
## Input I am curious: what MIC value has been reported for CC1(C)[C@H](NC(=O)/C(=N\O[C@@H](COc2ccc3c(c2)CN(C(=N)NCCN)C3)C(=O)O)c2csc(N)n2)C(=O)N1OS(=O)(=O)O [Compound 44] ?
## Output 1
